- Target entity: Luciferin 4-monooxygenase (Photinus pyralis) (UniProt P08659)
- Sequence (P08659 whole entry, looked up): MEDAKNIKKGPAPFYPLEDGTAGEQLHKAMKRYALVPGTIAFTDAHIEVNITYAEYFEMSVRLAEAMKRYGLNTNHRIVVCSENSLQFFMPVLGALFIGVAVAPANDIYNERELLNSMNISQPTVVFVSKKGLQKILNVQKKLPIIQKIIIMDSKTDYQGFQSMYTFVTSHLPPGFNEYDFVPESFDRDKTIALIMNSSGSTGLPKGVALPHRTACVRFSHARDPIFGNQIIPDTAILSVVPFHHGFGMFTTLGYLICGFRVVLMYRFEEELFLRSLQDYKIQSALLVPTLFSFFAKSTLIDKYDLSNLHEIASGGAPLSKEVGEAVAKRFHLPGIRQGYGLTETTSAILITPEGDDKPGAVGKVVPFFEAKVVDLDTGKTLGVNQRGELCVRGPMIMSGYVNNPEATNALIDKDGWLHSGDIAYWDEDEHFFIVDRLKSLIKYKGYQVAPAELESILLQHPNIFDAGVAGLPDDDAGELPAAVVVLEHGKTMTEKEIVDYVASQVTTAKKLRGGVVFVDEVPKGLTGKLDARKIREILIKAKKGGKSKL
- Experiment summary: qHTS assay to identify small molecule inhibitors of firefly luciferase (AID 1224835); further: nearly all actives have a fitted effect of over 25% in size
- Settings: purified P. pyralis luciferase, luminescence inhibition; series mostly up to 115 µM
Records with an inconclusive call do not appear. The source made the active and inactive calls. The call rests on the fitted dose curve; in most records, active means well fitted inhibition curve with a large enough effect in the repeat runs; inconclusive means weak or mixed curves; inactive means flat fitted curve, though single readings scatter.
Labels: active, inactive

Compound	Assigned label
CC(Cc1ccc(C(C)(C)C)cc1)CN1C[C@@H](C)O[C@@H](C)C1 (stereo not given in full)	inactive
Cc1ccc(CCl)cc1	inactive
S=C=Nc1cccc2ccccc12	inactive
ClCCN1CCOCC1	inactive
CC(O)C#N (stereo not given)	inactive
BrC(Br)C(Br)(Br)Br	active
CC[C@H](C)[C@H]1O[C@]2(C=C[C@@H]1C)C[C@@H]1C[C@@H](C/C=C(\C)[C@@H](O[C@H]3C[C@H](OC)[C@@H](O[C@H]4C[C@H](OC)[C@@H](O)[C@H](C)O4)[C@H](C)O3)[C@@H](C)/C=C/C=C3\CO[C@@H]4[C@H](O)C(C)=C[C@@H](C(=O)O1)[C@]34O)O2	inactive
CCOC(=O)C1(c2ccccc2)CCN(CCC(C#N)(c2ccccc2)c2ccccc2)CC1	inactive
ClC(Cl)=C(c1ccc(Cl)cc1)c1ccc(Cl)cc1	inactive
COC[C@H](C)N(C(=O)CCl)c1c(C)csc1C	inactive
CN(C)CCc1c[nH]c2cccc(O)c12	inactive
Cn1cc(C2=C(c3cn(C4CCN(Cc5ccccn5)CC4)c4ccccc34)C(=O)NC2=O)c2ccccc21	inactive
CCCCCCCCCCCCCCCC[N+](C)(C)C	inactive
COP(=O)(OC)SCn1c(=O)oc2cc(Cl)cnc21	inactive
Clc1ccc(CCC(Cn2ccnc2)Sc2c(Cl)cccc2Cl)cc1 (stereo not given)	inactive
CC(=O)Nc1ccc2c(c1)Cc1ccccc1-2	active
CC(C)CC(C)(c1ccc(O)cc1)c1ccc(O)cc1	inactive
Cc1cc(C(F)(C(F)(F)F)C(F)(F)F)ccc1NC(=O)c1cccc(I)c1C(=O)NC(C)(C)CS(C)(=O)=O	inactive
O=C(O)c1cc[c]([Hg][Cl])cc1	active
CCC(C)(C)C(=O)OC1=C(c2ccc(Cl)cc2Cl)C(=O)OC12CCCCC2	active
CC(C)[C@H](C(=O)O[C@H](C#N)c1cccc(Oc2ccccc2)c1)c1ccc(Cl)cc1	inactive
CCOC(=O)CC(=O)CCl	inactive
BrCBr	inactive
CCCCN(CCCC)C(=S)[S-].CCCCN(CCCC)C(=S)[S-].[Zn+2]	inactive
C=COCCCl	inactive
CC(=O)O[C@H]1CC[C@@]2(C)C(=CC[C@@H]3[C@@H]2CC[C@]2(C)C(=O)CC[C@@H]32)C1	inactive
NC(=O)CCl	inactive
Clc1ccc(COC(Cn2ccnc2)c2ccc(Cl)cc2Cl)cc1 (stereo not given)	inactive
Clc1ccc(-c2ccc(Cl)c(Cl)c2Cl)c(Cl)c1Cl	inactive
CCC(C)c1cc([N+](=O)[O-])cc([N+](=O)[O-])c1OC(=O)C=C(C)C (stereo not given)	inactive
C[C@]12CC[C@@H]3c4ccc(OC(=O)N(CCCl)CCCl)cc4CC[C@H]3[C@@H]1CC[C@@H]2O	inactive
CCOC(=O)c1ccccc1S(=O)(=O)NC(=O)Nc1nc(Cl)cc(OC)n1	inactive
Oc1cc(Cl)c(Cl)c(Cl)c1	inactive
O=[N+]([O-])c1ccc(Oc2ccc(C(F)(F)F)cc2[N+](=O)[O-])cc1	inactive
CC(=[OH+])/C=C(/C)[O-].CC(=[OH+])/C=C(\C)[O-].CC(=[OH+])/C=C(\C)[O-].[Fe]	active
O=[N+]([O-])c1cc(Cl)ccc1Cl	inactive
CC1(C)CN=C(NN=C(/C=C/c2ccc(C(F)(F)F)cc2)/C=C/c2ccc(C(F)(F)F)cc2)NC1	inactive
Cl/C=C\CCl	inactive
Clc1ccc(C(c2ccc(Cl)cc2)C(Cl)(Cl)Cl)cc1	inactive
c1cc[c]([Sb]([c]2ccccc2)[c]2ccccc2)cc1	inactive
Oc1ccccc1Br	inactive
C[C@H]1O[C@@H](O[C@H]2[C@@H](O)C[C@H](O[C@H]3[C@@H](O)C[C@H](O[C@H]4CC[C@@]5(C)[C@H](CC[C@@H]6[C@@H]5CC[C@]5(C)[C@@H](C7=CC(=O)OC7)CC[C@]65O)C4)O[C@@H]3C)O[C@@H]2C)C[C@H](O)[C@@H]1O	inactive
CC(=O)c1ccc(-c2ccccc2)cc1	active
O=CC(Br)(Br)Br	active
BrC(Br)Br	inactive
